Form field: IC50 (one value per entry).
Biological target: PI3K-α (PIK3CA) wild-type (WT), p110α/p85α complex (Homo sapiens, UniProt P42336)
Construct: Recombinant, catalytically active human full length PIK3KA Wild-type and H1047R mutant; 6×His (N); purchased EMD Millipore Sigma 14-602M
Assay: PI3K-alpha kinase (PIK3CA) biochemical activity, ADP-Glo, wild-type
Details: Soy PI lipid substrate
From the text: PI3K-Alpha Kinase (PIK3CA) Activity, Wild-Type and H1047R Mutant and Determining IC50 Values for Inhibitors Recombinant, catalytically active human full length PIK3KA Wild-type and H1047R mutant were purchased as 1:1 complex of N-terminal 6×his tagged p110α (catalytic) and untagged p85α (regulatory subunit) from EMD Millipore Sigma (cat. no. 14-602M and 14-792M, respectively). […]

Use these answered entries as a reference point.
Compound	IC50
Cc1cc(C(C)Nc2ccccc2C(=O)O)c2oc(-c3ccc4ncccc4n3)cc(=O)c2c1 (single isomer, unassigned)	1000 to 5000 nM
Cc1cc(C(C)Nc2ccccc2C(=O)O)c2oc(-c3ccc4nc(C)cn4n3)cc(=O)c2c1 (single isomer, unassigned) [Example 107]	1000 to 5000 nM

Switching to the query record.
The compound identified as Cc1cc(C(C)Nc2ccccc2C(=O)O)c2oc(-c3ccc4nccn4n3)cc(=O)c2c1 (stereo not drawn) [Example 15] registered its IC50 at 1000 to 5000 nM
